tested on: parental HEK293 cells; test: Membrane potential dye fluorescence assay in parental (non-transfected) HEK293 cells; type: cell-based, human; conditions: cells not expressing TRPA1
MEASURED_PROPERTY: response of parental HEK293 cells (in words)

Cc1ccccc1O [o-Cresol] ... no response
Cc1ccc(C(C)C)c(O)c1 [Thymol] ... no change in activation
O=CC=Cc1ccccc1 [cinnamaldehyde] ... no change in activation
Cc1ccc(C)c(O)c1 [2,5-dimethylphenol] ... no response
Cc1ccc(O)cc1C [3,4-dimethylphenol] ... no response

Pending molecule:
Input line: Name the reported response of parental HEK293 cells (in words) value associated with the molecule Cc1cccc(C)c1O [2,6-dimethylphenol]
Output line: no response

====

Biological target: hTRPA1 (Homo sapiens)
Construct: The full length hTRPA1 was amplified by PCR with Kpn1 and Xho1 restriction enzyme sites; expressed in transfected cells; also transient transfection
Sequence (O75762 whole entry): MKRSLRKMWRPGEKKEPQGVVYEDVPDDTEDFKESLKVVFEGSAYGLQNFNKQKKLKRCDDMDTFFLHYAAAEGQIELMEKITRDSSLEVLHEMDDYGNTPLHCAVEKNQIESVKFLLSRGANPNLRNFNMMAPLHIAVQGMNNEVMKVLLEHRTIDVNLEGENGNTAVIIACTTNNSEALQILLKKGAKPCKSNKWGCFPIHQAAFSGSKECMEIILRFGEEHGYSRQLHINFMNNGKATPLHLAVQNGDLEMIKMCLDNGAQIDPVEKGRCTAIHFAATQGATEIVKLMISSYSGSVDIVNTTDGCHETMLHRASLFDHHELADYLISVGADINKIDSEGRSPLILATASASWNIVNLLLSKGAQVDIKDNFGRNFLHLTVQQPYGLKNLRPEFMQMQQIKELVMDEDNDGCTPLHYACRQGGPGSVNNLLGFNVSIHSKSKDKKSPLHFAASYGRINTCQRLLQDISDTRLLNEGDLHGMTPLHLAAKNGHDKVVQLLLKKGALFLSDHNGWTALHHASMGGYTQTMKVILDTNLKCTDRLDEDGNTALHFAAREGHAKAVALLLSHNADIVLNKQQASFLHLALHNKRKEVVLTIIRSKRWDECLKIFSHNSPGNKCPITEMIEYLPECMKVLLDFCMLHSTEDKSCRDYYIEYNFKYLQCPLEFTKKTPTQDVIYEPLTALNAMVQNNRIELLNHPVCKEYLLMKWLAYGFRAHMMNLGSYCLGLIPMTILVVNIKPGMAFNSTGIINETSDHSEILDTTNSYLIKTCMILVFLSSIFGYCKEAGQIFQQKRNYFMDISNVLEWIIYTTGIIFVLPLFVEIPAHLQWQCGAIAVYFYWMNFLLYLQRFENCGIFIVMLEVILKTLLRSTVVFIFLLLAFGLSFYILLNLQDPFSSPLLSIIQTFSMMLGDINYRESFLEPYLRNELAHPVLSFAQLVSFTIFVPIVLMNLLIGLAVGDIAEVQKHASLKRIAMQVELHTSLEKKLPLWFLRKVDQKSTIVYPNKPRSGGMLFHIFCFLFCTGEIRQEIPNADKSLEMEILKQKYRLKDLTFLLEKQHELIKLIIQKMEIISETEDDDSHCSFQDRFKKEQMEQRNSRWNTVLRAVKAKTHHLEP
Test: Membrane potential dye fluorescence assay (FLIPR/FLEXstation), activation of hTRPA1 in transfected HEK293 cells
Format: cell-based
Method: Once expression of TRPA1 was confirmed, 100 μl of the Blue or Red FMP dye (Molecular Devices) was added to each well of plates seeded with the transiently transfected cells. The plate was then incubated in a 37° C./5% CO2 incubator for 1 hour. The plate was read in a FLEXStation microplate reader (Molecular Devices) with an excitation of 530 nm and an emission of 565 nm. The fluorescence was monitored for 3 minutes upon exposure of the cells to a TRPA1 activating agent (e.g., cinnamaldehyde). […]
MEASURED_PROPERTY: pEC50
Give bare numbers, as −log10 of the molar value.

Input line: Name the reported pEC50 value associated with the compound CC(C)c1cccc(C(C)C)c1O
Output line: 4.89
